Some molecules, each annotated with its measured pIC50.
- target.desc: UniProtKB P46095
- test.summary: Activity at GPR6 (unknown origin) expressed in CHOK1 cells assessed as inhibition of constitutive cAMP activity incubated for 45 mins by HTRF based cAMP detection assay
pIC50: −log10 of the molar value.
observable: pIC50

[
  {
    "molecule": "CC(C)Nc1nc2cnncc2nc1N1CCC(Oc2ccc(OCF)cc2F)CC1",
    "observable": "pIC50",
    "numeric.value": 8.10
  },
  {
    "molecule": "O=C(c1cccs1)C1CCN(c2nc3cnccc3nc2NC2CC2)CC1",
    "observable": "pIC50",
    "numeric.value": 5.17
  },
  {
    "molecule": "N#Cc1ccc2nc(N3CCN(C(=O)c4ccc(Cl)cc4)CC3)c(NC3CC3)nc2c1",
    "observable": "pIC50",
    "numeric.value": 6.47
  },
  {
    "molecule": "N#Cc1ccc2nc(NC3CC3)c(N3CCN(S(=O)(=O)c4ccc(C(F)(F)F)cc4Cl)CC3)nc2c1",
    "observable": "pIC50",
    "numeric.value": 5.89
  },
  {
    "molecule": "CSc1ccc(OC2CCN(c3nc4cnccc4nc3NC3CC3)CC2)cc1",
    "observable": "pIC50",
    "numeric.value": 6.84
  },
  {
    "molecule": "N#Cc1ccc2nc(NC3CC3)c(N3CCN(S(=O)(=O)c4cccc(Cl)c4)CC3)nc2c1",
    "observable": "pIC50",
    "numeric.value": 5.25
  },
  {
    "molecule": "N#Cc1ccc2nc(NC3CC3)c(N3CCN(S(=O)(=O)c4ccc(OC(F)(F)F)cc4)CC3)nc2c1",
    "observable": "pIC50",
    "numeric.value": 5.37
  },
  {
    "molecule": "Cc1cc2nc(NC3CC3)c(N3CCC([C@H](F)c4cc(F)ccc4F)CC3)nc2cn1",
    "observable": "pIC50",
    "numeric.value": 7.96
  },
  {
    "molecule": "CC(=O)c1ccc(OC2CCN(c3nc4cnccc4nc3NC3CC3)CC2)cc1",
    "observable": "pIC50",
    "numeric.value": 5.76
  },
  {
    "molecule": "Fc1ccc([C@H](F)C2CCN(c3nc4cnncc4nc3NC3CC3)CC2)c(F)c1",
    "observable": "pIC50",
    "numeric.value": 7.66
  },
  {
    "molecule": "C[C@@H](CO)Nc1nc2ccccc2nc1N1CCN(Cc2cc(Cl)ccc2Cl)CC1",
    "observable": "pIC50",
    "numeric.value": 5.80
  },
  {
    "molecule": "Clc1ccc(OC2CCN(c3nc4cnccc4nc3NC3CC3)CC2)cc1",
    "observable": "pIC50",
    "numeric.value": 6.51
  },
  {
    "molecule": "Cc1cc(S(=O)(=O)N2CCN(c3nc4cc(C#N)ccc4nc3NC3CC3)CC2)c(C)cc1Cl",
    "observable": "pIC50",
    "numeric.value": 6.35
  },
  {
    "molecule": "N#Cc1ccc2nc(N3CCC(C(F)c4ccc(F)cc4F)CC3)c(NC3CC3)nc2c1 (stereo not given)",
    "observable": "pIC50",
    "numeric.value": 7.54
  },
  {
    "molecule": "Cc1nccc2nc(NC3CC3)c(N3CCC(C(F)c4ccc(F)cc4F)CC3)nc12 (stereo not given)",
    "observable": "pIC50",
    "numeric.value": 8.05
  },
  {
    "molecule": "O=C(c1c(Cl)ccc(F)c1F)C1CCN(c2nc3cnccc3nc2NC2CC2)CC1",
    "observable": "pIC50",
    "numeric.value": 5.41
  },
  {
    "molecule": "Fc1ccc(CC2CCN(c3nc4cc(F)c(F)cc4nc3NC3CC3)CC2)c(F)c1",
    "observable": "pIC50",
    "numeric.value": 6.85
  },
  {
    "molecule": "Cc1ccccc1C(=O)C1CCN(c2nc3cnccc3nc2NC2CC2)CC1",
    "observable": "pIC50",
    "numeric.value": 5.24
  },
  {
    "molecule": "N#Cc1ccc(F)c(C(=O)C2CCN(c3nc4cnccc4nc3NC3CC3)CC2)c1",
    "observable": "pIC50",
    "numeric.value": 7.16
  },
  {
    "molecule": "Clc1ccc(Cl)c(CN2CCN(c3nc4ccccc4nc3Nc3cccnn3)CC2)c1",
    "observable": "pIC50",
    "numeric.value": 5.78
  }
]

----------
- target.desc: G-protein coupled receptor 6 (Homo sapiens)
- test.summary: Activity at GPR6 (unknown origin) expressed in CHOK1 cells assessed as inhibition of constitutive cAMP activity incubated for 45 mins by HTRF based cAMP detection assay
pIC50: −log10 of the molar value.

[
  {
    "structure": "O=C(c1cc(Cl)ccc1F)C1CCN(c2nc3cnccc3nc2NC2CC2)CC1",
    "pIC50": 7.46
  },
  {
    "structure": "Fc1ccc(C(F)(F)C2CCN(c3nc4cnccc4nc3NC3CC3)CC2)c(F)c1",
    "pIC50": 7.80
  },
  {
    "structure": "Cc1cccc(CN2CCN(c3nc4ccccc4nc3NC3CC3)CC2)c1C",
    "pIC50": 5.44
  },
  {
    "structure": "N#Cc1ccc2nc(NCC(F)F)c(N3CCC(Cc4ccc(F)cc4F)CC3)nc2c1",
    "pIC50": 7.15
  },
  {
    "structure": "CN(C)C(=O)c1cc2nc(NCC(F)F)c(N3CCC(Oc4ccc(F)cc4F)CC3)nc2cn1",
    "pIC50": 7.19
  },
  {
    "structure": "N#Cc1ccc2nc(NC3CC3)c(N3CCC(Cc4ccc(F)cc4F)CC3)nc2c1",
    "pIC50": 7.19
  },
  {
    "structure": "Cc1nccc2nc(NC3CC3)c(N3CCC(Oc4ccc(F)cc4F)CC3)nc12",
    "pIC50": 7.74
  },
  {
    "structure": "COc1ccc(OC2CCN(c3nc4ccncc4nc3NC(C)C)CC2)c(F)c1",
    "pIC50": 7.92
  },
  {
    "structure": "CC(C)Nc1nc2cnccc2nc1N1CCC(Oc2ccc(F)cc2F)CC1",
    "pIC50": 7.70
  },
  {
    "structure": "O=C(c1ccc(F)c(F)c1)C1CCN(c2nc3cnccc3nc2NC2CC2)CC1",
    "pIC50": 5.08
  }
]

----------
Some compounds, each annotated with its measured IC50.
- target.desc: G-protein coupled receptor 6 (Homo sapiens, UniProt P46095)
- Sequence (P46095 whole entry): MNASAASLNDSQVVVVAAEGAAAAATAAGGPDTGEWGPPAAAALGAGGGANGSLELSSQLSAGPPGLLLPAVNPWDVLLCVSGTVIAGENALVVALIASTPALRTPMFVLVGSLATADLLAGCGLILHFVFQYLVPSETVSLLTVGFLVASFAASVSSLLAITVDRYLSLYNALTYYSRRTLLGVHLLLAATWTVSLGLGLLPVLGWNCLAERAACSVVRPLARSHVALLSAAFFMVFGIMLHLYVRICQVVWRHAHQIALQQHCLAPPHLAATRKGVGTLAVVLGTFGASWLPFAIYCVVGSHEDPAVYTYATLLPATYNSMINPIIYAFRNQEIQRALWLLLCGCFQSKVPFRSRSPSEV
- test.summary: Activity at GPR6 (unknown origin) expressed in CHOK1 cells assessed as inhibition of constitutive cAMP activity incubated for 45 mins by HTRF based cAMP detection assay

[
  {
    "structure": "O=C(c1ccc(Cl)c(Cl)c1)N1CCN(c2nc3ccccc3nc2NC2CC2)CC1",
    "readout.units": "nM",
    "IC50": 79600
  },
  {
    "structure": "Fc1ccc(Cl)cc1CN1CCN(c2nc3cnccc3nc2NC2CC2)CC1",
    "readout.units": "nM",
    "IC50": 29
  },
  {
    "structure": "N#Cc1cc2nc(NC3CC3)c(N3CCC([C@@H](F)c4ccc(F)cc4F)CC3)nc2cn1",
    "readout.units": "nM",
    "IC50": 17
  },
  {
    "structure": "CC(C)Nc1nc2cc(C(=O)N(C)C)ncc2nc1N1CCN(Cc2ccc(F)cc2F)CC1",
    "readout.units": "nM",
    "IC50": 40
  },
  {
    "structure": "Fc1ccc(CN2CCN(c3nc4cnncc4nc3NC3CC3)CC2)c(F)c1",
    "readout.units": "nM",
    "IC50": 260
  },
  {
    "structure": "Fc1ccc(OC2CCN(c3nc4cnncc4nc3NC3CC3)CC2)c(F)c1",
    "readout.units": "nM",
    "IC50": 18
  },
  {
    "structure": "Clc1ccc(Cl)c(CN2CCN(c3nc4ccccc4nc3NC3CCOCC3)CC2)c1",
    "readout.units": "nM",
    "IC50": 4070
  },
  {
    "structure": "Fc1ccc(CC2CCN(c3nc4ccncc4nc3NCC(F)F)CC2)c(F)c1",
    "readout.units": "nM",
    "IC50": 78
  },
  {
    "structure": "Clc1ccccc1OC1CCN(c2nc3cnccc3nc2NC2CC2)CC1",
    "readout.units": "nM",
    "IC50": 1510
  },
  {
    "structure": "N#Cc1ccc(OC2CCN(c3nc4cnccc4nc3NC3CC3)CC2)cc1",
    "readout.units": "nM",
    "IC50": 1940
  }
]
